test: Cell Based Efficacy (MTT Assay), cytotoxicity toward HFF; settings: human, HFF cells (human foreskin fibroblasts), Table 8, HFF cell line
reported-metric: IC50 at 72 h

>>> print(df.to_string())
                          smiles_code  recorded_value
0  Fc1ccc(-c2nn3ccccc3c2-c2ccncn2)cc1         > 50 µM

----------
target: p38 kinase (Homo sapiens); construct: GST (N); made in house; host or cells: E. coli; assay: p38 Kinase Assay; type: biochemical; settings: Table 9; p38 assays using Assay II; read-out: p38 IC50
Sequence (Q16539 whole entry): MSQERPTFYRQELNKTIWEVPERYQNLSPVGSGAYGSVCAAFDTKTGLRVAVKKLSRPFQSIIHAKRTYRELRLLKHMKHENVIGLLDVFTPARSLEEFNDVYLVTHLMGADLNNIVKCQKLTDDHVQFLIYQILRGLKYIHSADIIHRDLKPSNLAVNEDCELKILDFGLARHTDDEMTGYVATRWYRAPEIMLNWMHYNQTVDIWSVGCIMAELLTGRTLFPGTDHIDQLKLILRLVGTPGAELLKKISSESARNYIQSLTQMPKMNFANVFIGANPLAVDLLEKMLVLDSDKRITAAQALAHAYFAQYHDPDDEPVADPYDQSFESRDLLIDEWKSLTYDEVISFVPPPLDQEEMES
reported-metric: IC50

>>> df
                                smiles_code    recorded_value
0  FC(F)(F)c1ccc2c(-c3ccnc(NCCN4CCCCCC4)n3)c(-c3cccc(Cl)c3)nn2c1    100 to 1000 nM
1  CCCN1CCN(CCNc2nccc(-c3c(-c4cccc(Cl)c4)nn4cc(C(F)(F)F)ccc34)n2)CC1      10 to 100 nM
2  Fc1ccc(-c2nn3cc(C(F)(F)F)ccc3c2-c2ccnc(NCCN3CCCCCC3)n2)cc1Cl    100 to 1000 nM
3  CCCN(CCC)CCNc1nccc(-c2c(-c3ccc(F)c(Cl)c3)nn3cc(C(F)(F)F)ccc23)n1    100 to 1000 nM
4  CN1CCN(CCCNc2nccc(-c3c(-c4ccc(F)c(Cl)c4)nn4cc(C(F)(F)F)ccc34)n2)CC1      10 to 100 nM
5  FC(F)(F)c1ccc2c(-c3ccnc(NCCCN4CCOCC4)n3)c(-c3cccc(Cl)c3)nn2c1      10 to 100 nM
6  CCCN(CCC)CCNc1nccc(-c2c(-c3ccc(C(F)(F)F)cc3)nn3cc(C(F)(F)F)ccc23)n1  1000 to 10000 nM

----------
# pIC50 annotations
molecular target: JNK3 kinase (Jnk-3alpha-2) (Homo sapiens); construct: Jnk-3alpha-2 (as a truncated construct, residues 39 to 224) was expressed in E. coli as a GST fusion protein; Following purification the GST portion was removed by thrombin cleavage; fused on or other part: An N-terminal GST tag was used for expression and removed by thrombin cleavage before the assay; assay: JNK3 Kinase Assay; type: biochemical; conditions: Table 9; read-out: JNK3 IC50
pIC50: −log10 of the molar value.
reported-metric: pIC50

>>> df
                                smiles_code  recorded_value
0  CCCN(CCC)CCNc1nccc(-c2c(-c3cccc(Cl)c3)nn3cc(C(F)(F)F)ccc23)n1    5.00 to 6.00
1  CCCN1CCN(CCNc2nccc(-c3c(-c4cccc(Cl)c4)nn4cc(C(F)(F)F)ccc34)n2)CC1    6.00 to 7.00
2  CCCN1CCN(CCNc2nccc(-c3c(-c4ccc(F)c(Cl)c4)nn4cc(C(F)(F)F)ccc34)n2)CC1    6.00 to 7.00
3  Fc1ccc(-c2nn3cc(C(F)(F)F)ccc3c2-c2ccnc(NCCCN3CCOCC3)n2)cc1Cl    6.00 to 7.00
4  Fc1ccc(-c2nn3cc(C(F)(F)F)ccc3c2-c2ccnc(NCCN3CCOCC3)n2)cc1Cl    6.00 to 7.00
5  CN1CCN(CCCNc2nccc(-c3c(-c4ccc(F)c(Cl)c4)nn4cc(C(F)(F)F)ccc34)n2)CC1    6.00 to 7.00

----------
biological target: JNK3 kinase (Jnk-3alpha-2) (Homo sapiens, UniProt P53779); construct: Jnk-3alpha-2 (as a truncated construct, residues 39 to 224) was expressed in E. coli as a GST fusion protein; Following purification the GST portion was removed by thrombin cleavage; fused on or other part: An N-terminal GST tag was used for expression and removed by thrombin cleavage before the assay; assay: JNK3 Kinase Assay; format: biochemical; settings: Table 9; read-out: JNK3 IC50
Sequence (P53779 39-402 limits assumed): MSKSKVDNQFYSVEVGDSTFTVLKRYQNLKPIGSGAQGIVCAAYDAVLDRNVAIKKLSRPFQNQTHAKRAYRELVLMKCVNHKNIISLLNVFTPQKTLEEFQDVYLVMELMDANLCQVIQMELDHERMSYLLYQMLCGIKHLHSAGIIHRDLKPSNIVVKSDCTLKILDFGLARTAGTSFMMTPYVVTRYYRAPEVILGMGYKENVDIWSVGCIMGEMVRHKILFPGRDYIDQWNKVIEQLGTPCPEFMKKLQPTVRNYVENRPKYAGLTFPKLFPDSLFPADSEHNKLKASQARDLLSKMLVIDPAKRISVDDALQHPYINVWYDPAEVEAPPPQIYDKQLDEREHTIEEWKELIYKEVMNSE
pIC50: −log10 of the molar value.
reported-metric: pIC50

In [3]: df
Out[3]:
                                 smiles_code  recorded_value
 0  CCCN1CCN(CCNc2nccc(-c3c(-c4ccc(C(F)(F)F)cc4)nn4cc(C(F)(F)F)ccc34)n2)CC1    5.00 to 6.00
 1  FC(F)(F)c1ccc2c(-c3ccnc(NCCN4CCCCC4)n3)c(-c3cccc(Cl)c3)nn2c1    5.00 to 6.00
 2  CN(C)CCCNc1nccc(-c2c(-c3ccc(F)cc3)nn3cc(C(F)(F)F)ccc23)n1    5.00 to 6.00
 3  CN(C)CCCNc1nccc(-c2c(-c3ccc(F)c(Cl)c3)nn3cc(C(F)(F)F)ccc23)n1    5.00 to 6.00
 4  FC(F)(F)c1ccc2c(-c3ccnc(NCCN4CCCC4)n3)c(-c3cccc(Cl)c3)nn2c1    5.00 to 6.00
 5  CCN(CC)CCCCNc1nccc(-c2c(-c3cccc(Cl)c3)nn3cc(C(F)(F)F)ccc23)n1    6.00 to 7.00
 6  Fc1ccc(-c2nn3cc(C(F)(F)F)ccc3c2-c2ccnc(NCCN3CCCCCC3)n2)cc1Cl    5.00 to 6.00
 7  CN(C)CCCNc1nccc(-c2c(-c3cccc(Cl)c3)nn3cc(C(F)(F)F)ccc23)n1    5.00 to 6.00
 8  FC(F)(F)c1ccc2c(-c3ccnc(NCCCCN4CCCC4)n3)c(-c3cccc(Cl)c3)nn2c1    6.00 to 7.00
 9  FC(F)(F)c1ccc2c(-c3ccnc(NCCN4CCCCCC4)n3)c(-c3cccc(Cl)c3)nn2c1    5.00 to 6.00
10  FC(F)(F)c1ccc2c(-c3ccnc(NCCCN4CCOCC4)n3)c(-c3cccc(Cl)c3)nn2c1    6.00 to 7.00
